- system: T1, mouse matriptase-2 ECD protein his tag (mouse, UniProt Q9DBI0 80-811)
- T1 sequence: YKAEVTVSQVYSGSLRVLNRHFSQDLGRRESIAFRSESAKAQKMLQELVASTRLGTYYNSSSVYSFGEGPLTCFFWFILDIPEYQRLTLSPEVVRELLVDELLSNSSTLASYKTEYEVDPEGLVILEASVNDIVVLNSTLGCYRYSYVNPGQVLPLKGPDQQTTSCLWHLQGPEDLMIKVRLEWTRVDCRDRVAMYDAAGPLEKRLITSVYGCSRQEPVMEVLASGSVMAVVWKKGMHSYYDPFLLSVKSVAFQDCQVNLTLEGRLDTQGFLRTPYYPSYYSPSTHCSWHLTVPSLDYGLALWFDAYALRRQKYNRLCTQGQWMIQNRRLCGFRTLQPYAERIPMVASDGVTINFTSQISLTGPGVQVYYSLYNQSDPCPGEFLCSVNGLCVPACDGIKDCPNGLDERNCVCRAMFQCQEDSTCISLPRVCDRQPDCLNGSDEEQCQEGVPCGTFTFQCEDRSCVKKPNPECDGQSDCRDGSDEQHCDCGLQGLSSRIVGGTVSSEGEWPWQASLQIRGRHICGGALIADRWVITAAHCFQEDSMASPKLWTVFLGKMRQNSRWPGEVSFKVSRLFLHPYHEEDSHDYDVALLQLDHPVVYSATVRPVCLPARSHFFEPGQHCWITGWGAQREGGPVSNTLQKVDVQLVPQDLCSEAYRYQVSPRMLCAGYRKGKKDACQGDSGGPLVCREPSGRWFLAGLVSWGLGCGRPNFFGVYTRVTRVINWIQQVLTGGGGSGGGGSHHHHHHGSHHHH
- procedureSummary: cell-based or functional assay
experimentalReadout: Inhibition enzymatic activity mouse MTP2 protein (IC50) (nM)
Write the value in nM as a bare number.

Here are 4 binders together with their reported answers.
{"binder": "NORI-001 (antibody, human IgG4 S228P, kappa, V domains shown) VH: QVQLVQSGAEVKKPGASVKVSCKVSGYTLSEFSIHWVRQAPGKGLEWMGGFDPEKGKTIYAQKFQGRVTMTEDTSTDTAYMDLSSLRSEDTAVYYCVTEGHFYGSGVFDFWGQGTLVTVSS VL: DIQMTQSPSSLSASVGDRVTITCRPSQGLRFDFGWYQQRPGKAPRRLIYAASILQSGVPSRFSGSGSGTEFTLTISSLQPEDFATYYCLQHNNYPWTFGQGTKVEIKR", "quantitativeResult": 12.4}
{"binder": "NORI-031 (antibody, human IgG4 S228P, lambda, V domains shown) VH: QLQLQESGPGLVKPSETLSLTCTVSGGAISSSNYFWGWIRQSPGKGLEWIGSMYYTGITYYNPSLKSRVTISVDTSKNQLSLKVNSVTAADTAVYYCARQDGFRTGWFDPWGQGTLVTVSS VL: SYELTQPPSVSVSPGQTATLTCSGDKLGDNYVCWFQQKPGQSPLLVMYQDTKRPSGIPERFSGSNSGNTATLTISGTQALDEADYYCQAWDSRTVVFGGGTKLTVLG", "quantitativeResult": 27}
{"binder": "NORI-030 (antibody, human IgG4 S228P, lambda, V domains shown) VH: QVQLVESGGGVVQPGRSLRLSCAASGFTFSNFDMDWVRQAPGRGLEWVALISYDGSKKYYADSVKGRFTISRDNSKNTLYLQMNSLRGEDTAVYFCAKEGYGGYDGFDYWGQGTLVTVSS VL: QSVLTQPPSVSEAPRQRVTISCSGSTSNIGNNAVNWYQQLPGKAPKLLISYDYVVSSGVSDRFSGSKSGTSASLAISGLQSADEADYYCSTWDDGLNGVVFGGGTKLTVLG", "quantitativeResult": 6.66}
{"binder": "NORI-025 (antibody, human IgG4 S228P, lambda, V domains shown) VH: QVQLVESGGGVVQPGRSLRLSCTASGVTFTNFDMHWVRQTPGKGLEWVAVIWYDESYSYYADSVQGRFTISRDNSKNSLYLQMNSLRADDTAVYYCARGWTGSYVFDYWGQGTLVTVSS VL: QSVLTQPPSVSEAPRQRVTISCSGSSSNIGNNAVNWYQQLPGKAPKLLISYDDLLPSGVSDRFSGSKSGTSASLAISGLQSADEADYYCAAWDDSLNAVVFGGGTKLTVLG", "quantitativeResult": 6.21}

Param item = NORI-026 (antibody, human IgG4 S228P, kappa, V domains shown) VH: QVQLVESGGGVVQPGRSLRLSCAASGFTFSYFGMHWVRQAPGKGLEWVADISYDGSDENYADSVKGRFTISRDNSKNTLSLQMNSLRAEDTAVYYCAKETYQSLMYLEYWGQGILVTVSS VL: AIQMTQSPSSLSASVGDRVTITCRASQDIRNDLGWYQQKPGKAPKLLIYTAPSLQSGVPSRFSGSGSGTDFTLTIGSLQPEDFATYYCLQDYNYPWTFGQGTKVEIKR ; retrieve measured Inhibition enzymatic activity mouse MTP2 protein (IC50).
6.22
